biological target: Androgen receptor (Homo sapiens); assay: qHTS assay to identify small molecule agonists of the androgen receptor (AR) signaling pathway (AID 743036); conditions: HEK293 AR-UAS-bla GripTite, beta-lactamase FRET ratio, 16 h; series mostly up to 62.4 µM
Inconclusive results are not listed. Activity calls are given as the source filed them. Calls follow the shape of the dose curve; as a rule, active = well fitted activation curve with a large enough effect in the signal ratio in the repeat runs, with a control signal flat (not every such curve was filed as active); inconclusive = weak or mixed curves, or effect the other way; inactive = no such curve, though single readings can be large or run the other way; the % refers to the signal ratio.
Outcome codes: Yes for active, No for inactive

[
  {
    "compound": "CCO[C@H](Cc1ccc(OCCc2ccc(OS(C)(=O)=O)cc2)cc1)C(=O)O",
    "label class": "No"
  },
  {
    "compound": "O=[N+]([O-])c1ccc(NCCO)c(OCCO)c1",
    "label class": "No"
  },
  {
    "compound": "CCOC(=O)COC(=O)c1cc(Oc2ccc(C(F)(F)F)cc2Cl)ccc1[N+](=O)[O-]",
    "label class": "No"
  },
  {
    "compound": "COC(=O)C1=C(C)NC(COC(N)=O)=C(C(=O)OC(C)C)C1c1cccc(Cl)c1Cl (configuration not stated)",
    "label class": "Yes"
  },
  {
    "compound": "CC(COCCO)OCCO (configuration not stated)",
    "label class": "No"
  },
  {
    "compound": "CN(C)c1ccc(C(c2ccccc2)c2ccc(N(C)C)cc2)cc1",
    "label class": "No"
  },
  {
    "compound": "C=C1C(=C/C=C2\\CCC[C@]3(C)[C@@H]([C@H](C)/C=C/[C@@H](O)C4CC4)CC[C@@H]23)C[C@@H](O)C[C@@H]1O",
    "label class": "No"
  },
  {
    "compound": "Cc1cccc(Nc2ccccc2)c1",
    "label class": "No"
  },
  {
    "compound": "CNCCCN1c2ccccc2CCc2ccccc21",
    "label class": "No"
  },
  {
    "compound": "NCc1ccccc1Sc1ccccc1CO",
    "label class": "No"
  },
  {
    "compound": "O=CC1CC=CCC1 (configuration not stated)",
    "label class": "No"
  },
  {
    "compound": "COc1cc(C(=O)OCCCN2CCCN(CCCOC(=O)c3cc(OC)c(OC)c(OC)c3)CC2)cc(OC)c1OC",
    "label class": "No"
  },
  {
    "compound": "c1ccc(-c2ccccn2)nc1",
    "label class": "No"
  },
  {
    "compound": "CCCCCC[C@@H](O)C/C=C\\CCCCCCCC(=O)OC",
    "label class": "No"
  },
  {
    "compound": "CN1CCC(=C2c3ccccc3Sc3ccccc32)CC1",
    "label class": "No"
  },
  {
    "compound": "Nc1cccc([N+](=O)[O-])c1",
    "label class": "No"
  },
  {
    "compound": "CCCCCCCCCc1ccc(OCCOCCO)cc1",
    "label class": "No"
  },
  {
    "compound": "CC(C)CC(=O)C1C(=O)c2ccccc2C1=O",
    "label class": "No"
  },
  {
    "compound": "C[C@@H]1C[C@H]2O[C@@]3(O[C@@H]2C(C)(C)O)[C@H](O)[C@@]2(C)[C@@H]4CC[C@H]5C(C)(C)[C@@H](O[C@@H]6OC[C@@H](O)[C@H](O)[C@H]6O)CC[C@@]56C[C@@]46CC[C@]2(C)[C@@H]13",
    "label class": "No"
  },
  {
    "compound": "CC(=O)NO",
    "label class": "No"
  },
  {
    "compound": "CN1CCN(C(c2ccccc2)c2ccccc2)CC1",
    "label class": "No"
  },
  {
    "compound": "Nc1ccc(N)c2c1C(=O)c1ccccc1C2=O",
    "label class": "No"
  }
]
